# key: entry, value: pEC50
Tested on: Marburgvirus
Test: Antiviral activity against Marburg virus Lake Victoria, 2005 Angola infected in human HeLa cells pretreated for 1 hr followed by virus infection measured after 24 hrs by Hoechst staining-based immunofluorescence assay
Assay type: functional, organism-based, Lake Victoria marburgvirus
Conditions: Orthomarburgvirus, Angola2005, HeLa
Note: pEC50 values are expressed as the negative base-10 logarithm of concentration in M.

These recorded examples may help you get a feel for the data.
molecule	assayValue
O=C(c1ccc(CN2CCCCC2)cc1)N1CCc2ccc(C(F)(F)F)cc21	5.09
CN(C)CCOc1ccc(/C(=C(/CCCl)c2ccccc2)c2ccccc2)cc1 [TOREMIFENE]	5.49
CC1CCN(c2ccc(NC(=O)c3ccc(CN4CCOCC4)cc3)cc2C(F)(F)F)CC1	6.09

stdin: Need pEC50, item CC(c1ccc(C(=O)Nc2ccc(C3CCCCC3)cc2)cc1)N1CCCCC1 (stereo unspecified)
stdout: 5.25

stdin: Need pEC50, item `O=C(Nc1ccc(C2CCCCC2)cc1)c1ccc(CN2CCCCC2)c(F)c1`
stdout: 4.78

stdin: Need pEC50, item `O=C(Nc1ccc(SC(F)(F)F)c(Cl)c1)c1ccc(CN2CCCCC2)cc1`
stdout: 5.62

stdin: Need pEC50, item CC(c1ccc(C(=O)N2CCc3cc(C(C)(C)C)ccc32)cc1)N1CCCCC1 (stereo unspecified)
stdout: 5.47

stdin: Need pEC50, item `CC(C)(C)c1ccc(NC(=O)c2ccc(CN3CCCCC3)cc2)c(C(C)(C)C)c1`
stdout: 5.70

stdin: Need pEC50, item `O=C(Nc1ccc(C23CC4CC(CC(C4)C2)C3)cc1)c1ccc(CN2CCCCC2)cc1`
stdout: 5.91

stdin: Need pEC50, item CC(c1ccc(C(=O)N2CC(C(C)(C)C)c3ccccc32)cc1)N1CCCCC1 (stereo unspecified)
stdout: 5.20

stdin: Need pEC50, item `O=C(Nc1ccc(C23CC4CC(CC(C4)C2)C3)cc1)c1ccc(CN2CCOCC2)cc1`
stdout: 6.28

====

Experiment: Metabolic stability in human liver microsomes assessed as parent compound remaining after 60 mins in presence of NADPH by HPLC analysis
Type: ADME, Microsome
Conditions: read-out: Stability
measuredParameter: remaining at 1 h (%)
// return numeric value only (unit: %, not printed)

These recorded examples may help you get a feel for the data.
compound	remaining at 1 h, %
CC1CCN(c2ccc(NC(=O)c3ccc(CN4CCOCC4)cc3)cc2C(F)(F)F)CC1	64
O=C(c1ccc(CN2CCCCC2)cc1)N1CCc2ccc(C(F)(F)F)cc21	31

stdin: Need remaining at 1 h, item `O=C(Nc1ccc(C23CC4CC(CC(C4)C2)C3)cc1)c1ccc(CN2CCOCC2)cc1`
stdout: 34

stdin: Need remaining at 1 h, item CC(c1ccc(C(=O)N2CCc3cc(C(C)(C)C)ccc32)cc1)N1CCCCC1 (stereo not given)
stdout: 46

stdin: Need remaining at 1 h, item `COC(=O)c1ccc(NC(=O)c2ccc(CN3CCCCC3)cc2)cc1`
stdout: 54

====

Test: Selectivity index, ratio of CC50 for human A549 cells to EC50 for HIV/EBOV-GP infected in human A549 cells
Assay type: toxicity, cell-based
Settings: read-out: Ratio CC50/EC50
# key: entry, value: selectivity ratio

smilesCode	assayValue
O=C(Nc1ccc(C(F)(F)F)cc1)c1ccc(CN2CCCCC2)s1	9
O=C(Nc1ccc(Cl)c(C(F)(F)F)c1)c1ccc(CN2CCCCC2)cc1	7
O=C(Nc1ccc(C2CC2)cc1)c1ccc(CN2CCCCC2)cc1	22
O=C(Nc1ccc(C23CC4CC(CC(C4)C2)C3)cc1)c1ccc(CN2CCCCC2)cc1	231
CC(C)c1ccc(NC(=O)c2ccc(CN3CCCCC3)cc2)cc1	10

stdin: Need selectivity ratio, item `CC1CCN(c2ccc(NC(=O)c3ccc(CN4CCOCC4)cc3)cc2C(F)(F)F)CC1`
stdout: 2090

stdin: Need selectivity ratio, item `O=C(Nc1ccc(C(F)(F)F)cc1)c1ccc(CN2CCCCC2)cc1`
stdout: 9

stdin: Need selectivity ratio, item `CC(C)(C)c1ccc(NC(=O)c2ccc(CN3CCCCC3)cc2)c(C(C)(C)C)c1`
stdout: 76

stdin: Need selectivity ratio, item `O=C(Nc1ccc(C23CC4CC(CC(C4)C2)C3)cc1)c1ccc(CN2CCOCC2)cc1`
stdout: 5440

stdin: Need selectivity ratio, item `O=C(NCCC1CCCCC1)c1ccc(CN2CCCCC2)cc1`
stdout: 25
